Listing of recorded activity change, negative = inhibition by entry.
- Protocol: DUX4 transcriptional activity inhibition in cells – 293T cells, Gaussia and Italica luciferase, primary screen (AID 1224904);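 further: 0% = median of neutral control wells and -100% = median of positive control wells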
- Condition label: 293T-iDUX4 ZSCAN4-Gaussia luciferase reporter, 24 h; measured here: Italica tet-on control reporter; stronger effect = lower value; concentration not given here
The whole screen tested about 37,000 compounds, of which about 290 (0.78%) were called active. Inconclusive results (about 10%) are left out. The entries come from a sample that favours actives as a whole.

{"Substance smiles": "COc1ccccc1C#Cc1cnc2c(c1)C(=O)N([C@@H](C)CO)C[C@@H](C)[C@H](CN(C)C(=O)CN(C)C)O2", "Measurement unit": "%", "activity change, negative = inhibition": -4.12}
{"Substance smiles": "COc1ccc(CNC(=O)C[C@H]2C[C@@H]3c4cc(NC(=O)NC5CCCC5)ccc4O[C@@H]3[C@H](CO)O2)cc1", "Measurement unit": "%", "activity change, negative = inhibition": 6.85}
{"Substance smiles": "COCC(=O)N(C[C@H]1N[C@H](CO)[C@H]1c1ccc(C2=CCCCC2)cc1)C(C)C", "Measurement unit": "%", "activity change, negative = inhibition": 3.71}
{"Substance smiles": "CCC(=O)N1[C@H](CO)[C@@H]2c3ccccc3N(S(=O)(=O)c3ccccc3C)C[C@@H]21", "Measurement unit": "%", "activity change, negative = inhibition": -0.843}
{"Substance smiles": "COc1cccc(CNC(=O)[C@@H]2[C@@H](CO)[C@@H]3Cn4c(ccc(-c5ccncc5)c4=O)[C@H]2N3C(C)=O)c1", "Measurement unit": "%", "activity change, negative = inhibition": -3.37}
{"Substance smiles": "CN1CCN(C(=O)C[C@@H]2CC[C@@H]3[C@H](COC[C@H](O)CN3CC3CCOCC3)O2)CC1", "Measurement unit": "%", "activity change, negative = inhibition": 11.6}
{"Substance smiles": "CC(C)CN(C[C@@H]1N[C@@H](CO)[C@H]1c1ccccc1)C(=O)CN(C)C", "Measurement unit": "%", "activity change, negative = inhibition": 0.95}
{"Substance smiles": "CCCNC(=O)N1C[C@@H](O)COC[C@@H]2O[C@H](CC(=O)N3CCN(C)CC3)CC[C@H]21", "Measurement unit": "%", "activity change, negative = inhibition": 0.769}
{"Substance smiles": "COCC(=O)Nc1ccc2c(c1)OC[C@@H](C)N(C(=O)CC1CC1)C[C@@H](C)[C@@H](OC)CN(C)C2=O", "Measurement unit": "%", "activity change, negative = inhibition": -0.0881}
{"Substance smiles": "C[C@@H](O)C#Cc1ccc([C@@H]2[C@H]3CN(C(=O)c4ccc5c(c4)OCO5)CCCCN3[C@H]2CO)cc1", "Measurement unit": "%", "activity change, negative = inhibition": 10.3}
{"Substance smiles": "CCC(=O)N1CC2(C1)[C@@H](c1ccc(C3=CCCC3)cc1)[C@@H](CO)N2C(=O)COC", "Measurement unit": "%", "activity change, negative = inhibition": 3.57}
{"Substance smiles": "OC[C@H]1[C@@H](c2ccc(C#CC3(O)CCCC3)cc2)[C@H]2CN(Cc3cncnc3)CCCCN21", "Measurement unit": "%", "activity change, negative = inhibition": 12.8}
{"Substance smiles": "CC(C)[C@@H]1COCc2cnnn2CCC[C@H](C)C(=O)N1", "Measurement unit": "%", "activity change, negative = inhibition": -1.01}
{"Substance smiles": "CCCNC(=O)N(C)C[C@H]1Oc2ncc(-c3ccc(C(=O)N(C)C)cc3)cc2C(=O)N([C@@H](C)CO)C[C@@H]1C", "Measurement unit": "%", "activity change, negative = inhibition": 5.7}
{"Substance smiles": "C[C@@H]1CN([C@H](C)CO)S(=O)(=O)c2ccc(C#CC3CCCC3)cc2O[C@@H]1CN(C)Cc1ccccc1C(=O)O", "Measurement unit": "%", "activity change, negative = inhibition": -2.07}
{"Substance smiles": "COCC(=O)N1[C@H](CNC(=O)c2ccccn2)[C@H](c2ccccc2)[C@@H]1CO", "Measurement unit": "%", "activity change, negative = inhibition": 1.68}
{"Substance smiles": "C[C@@H]1CN([C@@H](C)CO)C(=O)c2c(c3ccccc3n2C)-c2ccccc2CO[C@H]1CN(C)C(=O)C1CC1", "Measurement unit": "%", "activity change, negative = inhibition": 14.6}

Reference source for all entries: PubChem BioAssay AID1224904
